For each of the substances below, state its pKd.
Target: HIV TAR RNA
Test: Fluorescence anisotropy binding of Tat peptides to fluorescein-labeled TAR RNA
Settings: Table 2; read-out: KD, binding affinity of Tat-peptide and TAR RNA by fluorescence anisotropy assay
Procedure: The binding affinity of XaaTat peptides (Xaa=Agh, Arg and Agb) for TAR RNA was measured by fluorescence anisotropy using a Varian Cary Eclipse fluorescence spectrophotometer. The anisotropy (r) was calculated using the following equation: […] where Ivv, Ivh, Ihh, Ihv are the fluorescence intensities with the excitation polarizer and emission polarizer is oriented perpendicular (Ivh and Ihv) and parallel (Ivv and Ihh) to the direction of the polarized excitation. […]
One number for each entry, as −log10 of the molar value.

As a guide, the following entries are already answered.
[[record]]
substance = "Ac-Tyr-Gly-Arg-Lys-Lys-Arg-Arg-Gln-Arg-Arg-Cit-NH2 [Tat-Cit57]"
measure = "pKd"
observed = 7.31

[[record]]
substance = "Ac-Tyr-Gly-Cit-Lys-Lys-Arg-Arg-Gln-Arg-Arg-Arg-NH2 [Tat-Cit49]"
measure = "pKd"
observed = 7.03

[[record]]
substance = "Ac-Tyr-Gly-Arg-Lys-Lys-Cit-Arg-Gln-Arg-Arg-Arg-NH2 [Tat-Cit52]"
measure = "pKd"
observed = 6.94


Please give pKd for each item listed below.
1. Ac-Tyr-Gly-Arg-Lys-Lys-Arg-Cit-Gln-Arg-Arg-Arg-NH2 [Tat-Cit53]
2. Ac-Tyr-Gly-Arg-Lys-Lys-Arg-Arg-Gln-Cit-Arg-Arg-NH2 [Tat-Cit55]
3. Ac-Tyr-Gly-Arg-Lys-Lys-Arg-Arg-Gln-Arg-Cit-Arg-NH2 [Tat-Cit56]

1. 6.99
2. 7.00
3. 7.26
